The values you see were collected from ChEMBL document CHEMBL3352462.

Listed next: entries and their corresponding pIC50.
molecular target: Cytochrome P450 11B2, mitochondrial (Homo sapiens); assay: Inhibition of human CYP11B2 expressed in NCI-H295R cells assessed as reduction in aldosterone formation; type: cell-based
The meaning of pIC50 here: minus log10 of the concentration in molar units.

INSERT INTO results (molecule, measured_endpoint, measured) VALUES
  ('CCS(=O)(=O)N(Cc1cncc(-c2cccc(Cl)c2Cl)c1)C1CC1', 'pIC50', 8.30),
  ('CC(O)c1c(F)cncc1-c1cc2cc(Cl)c(F)cc2o1 (stereo not drawn)', 'pIC50', 8.60);

We next turn to a different molecule, shown below.
Measured pIC50 for this entry Cn1c(=O)oc2cc(-c3cncc(C(O)C(F)(F)F)c3)ccc21 (stereo not drawn) on Cytochrome P450 11B2, mitochondrial (Homo sapiens): 8.85

----------
molecular target: UniProt:P19099; assay: Inhibition of human aldosterone synthase expressed in V79 MZ cells assessed as inhibition of aldosterone synthesis; type: cell-based, V79MZ
MEASURED_ENDPOINT: pIC50
The meaning of pIC50 here: minus log10 of the concentration in molar units.

// CN[C@@H]1C[C@H]2O[C@@](C)([C@@H]1OC)n1c3ccccc3c3c4c(c5c6ccccc6n2c5c31)C(=O)NC4 [STAUROSPORINE] : pIC50 value = 7.96

----------
target: Cytochrome P450 11B2, mitochondrial (Homo sapiens, UniProt P19099); experiment: Inhibition of human CYP11B2 expressed in G402 cells; format: cell-based, G-402
Sequence (P19099 whole entry): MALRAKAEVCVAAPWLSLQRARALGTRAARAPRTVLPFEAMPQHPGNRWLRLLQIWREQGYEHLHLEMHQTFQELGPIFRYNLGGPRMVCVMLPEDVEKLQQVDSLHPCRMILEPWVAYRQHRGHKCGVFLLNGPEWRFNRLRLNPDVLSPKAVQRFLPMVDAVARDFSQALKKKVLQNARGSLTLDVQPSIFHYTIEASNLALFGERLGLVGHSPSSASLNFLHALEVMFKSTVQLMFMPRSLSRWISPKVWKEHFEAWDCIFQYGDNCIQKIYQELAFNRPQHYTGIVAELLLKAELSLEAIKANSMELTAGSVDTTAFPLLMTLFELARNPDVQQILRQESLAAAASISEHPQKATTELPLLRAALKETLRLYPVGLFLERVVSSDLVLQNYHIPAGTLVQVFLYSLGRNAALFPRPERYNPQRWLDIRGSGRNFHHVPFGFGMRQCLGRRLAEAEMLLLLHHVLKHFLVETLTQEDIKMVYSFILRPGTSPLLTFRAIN
MEASURED_ENDPOINT: pIC50
The meaning of pIC50 here: minus log10 of the concentration in molar units.

Measured pIC50 for this entry CC1(C)c2cc(Cl)ccc2C(=O)N1c1cncc(C2CCCN(S(C)(=O)=O)C2)n1 (stereo unspecified) on Cytochrome P450 11B2, mitochondrial (Homo sapiens, UniProt P19099): 8.55

----------
target: UniProt:P19099; assay: Inhibition of human aldosterone synthase in homogenized rat glomerulosa tissue
MEASURED_ENDPOINT: pIC50
The meaning of pIC50 here: minus log10 of the concentration in molar units.

// `c1ccc2c(-c3cccc4cncn34)cccc2c1` : pIC50 value = 7.30

----------
molecular target: Cytochrome P450 11B2, mitochondrial (Homo sapiens); assay: Inhibition of human aldosterone synthase expressed in V79 MZ cells; assay type: cell-based, V79MZ
MEASURED_ENDPOINT: pIC50
The meaning of pIC50 here: minus log10 of the concentration in molar units.

// `Cc1cncc(-c2cc3n(n2)CCC(=O)N3)c1` : pIC50 value = 8.66

----------
molecular target: UniProtKB P05177; assay: Inhibition of CYP1A2 (unknown origin); assay type: ADME
Sequence (P05177 whole entry): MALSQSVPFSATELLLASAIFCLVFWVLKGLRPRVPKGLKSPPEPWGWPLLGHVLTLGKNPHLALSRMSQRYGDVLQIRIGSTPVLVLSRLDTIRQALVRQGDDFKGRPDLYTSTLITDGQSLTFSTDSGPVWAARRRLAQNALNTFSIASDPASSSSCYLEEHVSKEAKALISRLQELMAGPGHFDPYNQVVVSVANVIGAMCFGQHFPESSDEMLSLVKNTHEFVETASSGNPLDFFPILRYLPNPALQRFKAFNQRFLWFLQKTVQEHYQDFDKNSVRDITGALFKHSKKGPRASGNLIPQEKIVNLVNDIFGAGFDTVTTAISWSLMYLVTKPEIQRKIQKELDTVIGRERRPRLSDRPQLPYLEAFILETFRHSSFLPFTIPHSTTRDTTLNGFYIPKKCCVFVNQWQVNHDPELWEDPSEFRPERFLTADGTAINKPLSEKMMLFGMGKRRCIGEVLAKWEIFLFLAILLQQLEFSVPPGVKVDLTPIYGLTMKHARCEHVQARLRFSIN
MEASURED_ENDPOINT: IC50

Measured IC50 for this entry `c1cncc(C2CCCCCCC2)c1` on UniProtKB P05177: > 100 µM

----------
Listed next: entries and their corresponding Ratio IC50.
species: Homo sapiens; test: Selectivity ratio of IC50 for human CYP11B1 to IC50 for human CYP11B2
# output: bare number, no unit

INSERT INTO results (molecule, measured) VALUES
  ('CC(O)c1c(F)cncc1-c1cc2cc(Cl)c(F)cc2o1 (centres undefined)', 427),
  ('CCS(=O)(=O)NCc1cncc(-c2c(C)c3ccccc3n2C)c1', 322),
  ('COc1cccc2c1CCC1C(c3cnc[nH]3)C21 (centres undefined)', 2),
  ('c1cncc(C2CCCCCCC2)c1', 50),
  ('CC1(C)c2cc(Cl)ccc2C(=O)N1c1cncc(C2CCCN(S(C)(=O)=O)C2)n1 (centres undefined)', 589);

// `Cc1cncc(-c2cc3n(n2)CCC(=O)N3)c1` : Ratio IC50 value = 128

// `Cc1ccncc1-c1cc(F)c2c(c1)CCc1nnc(C)n1-2` : Ratio IC50 value = 421
